Assay: The drug is tested on Collinsella aerofaciens strain: ATCC25986 for biotransformation. The drug concentrations were measured before and after a 12-h incubation by liquid-chromatography-coupled mass spectrometry (LC–MS)
Settings: 2 µM
property-name: Bacterial Biotransformation

Previously resolved entries follow.
- compound: "CC(C(=O)O)c1ccc2c(c1)Cc1cccnc1O2 (stereo not given) [PRANOPROFEN]"
  property-name: "Bacterial Biotransformation"
  reported-value: "Compound NOT metabolized"
- compound: "C=CC[C@@H]1/C=C(\\C)C[C@H](C)C[C@H](OC)[C@H]2O[C@@](O)(C(=O)C(=O)N3CCCC[C@H]3C(=O)O[C@H](/C(C)=C/[C@@H]3CC[C@@H](O)[C@H](OC)C3)[C@H](C)[C@@H](O)CC1=O)[C@H](C)C[C@@H]2OC.O [TACROLIMUS]"
  property-name: "Bacterial Biotransformation"
  reported-value: "Compound metabolized"
- compound: "Cc1ccccc1N1C(=O)c2cc(S(N)(=O)=O)c(Cl)cc2NC1C (stereo not given) [METOLAZONE]"
  property-name: "Bacterial Biotransformation"
  reported-value: "Compound NOT metabolized"
- compound: "CC(=O)OCC(=O)[C@@]12N=C(C)O[C@@H]1C[C@H]1[C@@H]3CCC4=CC(=O)C=C[C@]4(C)[C@H]3[C@@H](O)C[C@@]12C [DEFLAZACORT]"
  property-name: "Bacterial Biotransformation"
  reported-value: "Compound metabolized"

Okay, next one:
Given the entry CN(C)CC(c1ccc(O)cc1)C1(O)CCCCC1.O=C(O)CCC(=O)O (stereo not given) [DESVENLAFAXINE SUCCINATE] , report its measured Bacterial Biotransformation. Compound NOT metabolized

====

Conditions: bacteroides fragilis, 12 h, 2 µM
Description: The drug is tested on Bacteroides fragilis strain: NCTC 9343 for biotransformation. The drug concentrations were measured before and after a 12-h incubation by liquid-chromatography-coupled mass spectrometry (LC–MS)
property-name: Bacterial Biotransformation

Previously resolved entries follow.
- compound: "COc1cc2nc(N3CCN(C(=O)C4COc5ccccc5O4)CC3)nc(N)c2cc1OC.CS(=O)(=O)O (configuration not stated) [DOXAZOSIN MESYLATE]"
  Bacterial Biotransformation: "Compound NOT metabolized"
- compound: "CCc1nc(N)nc(N)c1-c1ccc(Cl)cc1"
  Bacterial Biotransformation: "Compound NOT metabolized"
- compound: "Cc1cc2c(cc1S(N)(=O)=O)S(=O)(=O)CCC2"
  Bacterial Biotransformation: "Compound NOT metabolized"
- compound: "C[C@H]1O[C@@H](O[C@H]2[C@@H](O)C[C@H](O[C@H]3[C@@H](O)C[C@H](O[C@H]4CC[C@@]5(C)[C@H](CC[C@@H]6[C@@H]5C[C@@H](O)[C@]5(C)[C@@H](C7=CC(=O)OC7)CC[C@]65O)C4)O[C@@H]3C)O[C@@H]2C)C[C@H](O)[C@@H]1O"
  Bacterial Biotransformation: "Compound NOT metabolized"
- compound: "CN1CC(=O)N2[C@H](c3ccc4c(c3)OCO4)c3[nH]c4ccccc4c3C[C@@H]2C1=O"
  Bacterial Biotransformation: "Compound NOT metabolized"
- compound: "O=C1N=C([O-])NC1(c1ccccc1)c1ccccc1.[Na+] [PHENYTOIN SODIUM]"
  Bacterial Biotransformation: "Compound metabolized"
- compound: "NC(CO)(CO)CO.O=C(c1ccccc1)c1ccc2n1CCC2C(=O)O (configuration not stated)"
  Bacterial Biotransformation: "Compound metabolized"
- compound: "CC(CCc1ccccc1)NCC(O)c1ccc(O)c(C(N)=O)c1 (configuration not stated)"
  Bacterial Biotransformation: "Compound NOT metabolized"

Data request, read-out Bacterial Biotransformation, for COC1=C(OC)C(=O)C(CCCCCCCCCCO)=C(C)C1=O Compound metabolized

Report Bacterial Biotransformation for O=C1[C@H](CC[C@H](O)c2ccc(F)cc2)[C@@H](c2ccc(O)cc2)N1c1ccc(F)cc1 please. Compound NOT metabolized

Please report the recorded Bacterial Biotransformation for CN(C)CCOC(c1ccc(Cl)cc1)c1ccccn1.O=C(O)/C=C\C(=O)O (configuration not stated) [CARBINOXAMINE MALEATE] . Compound NOT metabolized

Fill blank: measured Bacterial Biotransformation of the compound CS(=O)(=O)O.O.O.O.O=C1Cc2cc(CCN3CCN(c4nsc5ccccc45)CC3)c(Cl)cc2N1 [ZIPRASIDONE MESYLATE] is ____. Compound NOT metabolized

// Bacterial Biotransformation lookup, key: O=P1(N(CCCl)CCCl)NCCCO1 (configuration not stated) [CYCLOPHOSPHAMIDE ANHYDROUS] Compound NOT metabolized

Need Bacterial Biotransformation of O=C1CN2Cc3c(ccc(Cl)c3Cl)N=C2N1 [ANAGRELIDE] , thanks. Compound NOT metabolized

I'd like to know its Bacterial Biotransformation. The compound in question is CCc1nn(CCCN2CCN(c3cccc(Cl)c3)CC2)c(=O)n1CCOc1ccccc1 Compound NOT metabolized

Entry under review: COc1ccc2[nH]c([S+]([O-])Cc3ncc(C)c(OC)c3C)nc2n1 (configuration not stated) . Reported Bacterial Biotransformation? Compound metabolized

Find the recorded Bacterial Biotransformation belonging to Cc1cc(C)cc(OCC2CNC(=O)O2)c1 (configuration not stated) and report it. Compound metabolized

====

Settings: bifidobacterium adolescentis, 12 h, 2 µM
Description: The drug is tested on Bifidobacterium adolescentis strain: ATCC 15703 for biotransformation. The drug concentrations were measured before and after a 12-h incubation by liquid-chromatography-coupled mass spectrometry (LC–MS)
property-name: Bacterial Biotransformation

- compound: "CC(=O)CC(c1ccccc1)c1c(O)c2ccccc2oc1=O (stereo unspecified)"
  reported-value: "Compound NOT metabolized"
- compound: "CC(C)(Oc1ccc(CCNC(=O)c2ccc(Cl)cc2)cc1)C(=O)O [BEZAFIBRATE]"
  reported-value: "Compound metabolized"
- compound: "C=CCc1ccccc1OCC(O)CNC(C)C (stereo unspecified)"
  reported-value: "Compound NOT metabolized"
- compound: "CCc1oc2ccccc2c1C(=O)c1cc(Br)c(O)c(Br)c1"
  reported-value: "Compound NOT metabolized"
- compound: "O=C(NC(Cc1cc(=O)[nH]c2ccccc12)C(=O)O)c1ccc(Cl)cc1 (stereo unspecified) [REBAMIPIDE]"
  reported-value: "Compound NOT metabolized"
- compound: "CC(=O)O[C@]1(C(C)=O)CC[C@H]2[C@@H]3C=C(C)C4=CC(=O)CC[C@]4(C)[C@H]3CC[C@@]21C [MEGESTROL ACETATE]"
  reported-value: "Compound metabolized"
- compound: "C[C@@H](c1ncncc1F)[C@](O)(Cn1cncn1)c1ccc(F)cc1F"
  reported-value: "Compound NOT metabolized"
- compound: "CN(CCOc1ccc(CC2SC(=O)NC2=O)cc1)c1ccccn1.O=C(O)/C=C\\C(=O)O (stereo unspecified) [ROSIGLITAZONE MALEATE]"
  reported-value: "Compound NOT metabolized"

Any idea what Bacterial Biotransformation was measured for Cc1nc(Nc2ncc(C(=O)Nc3c(C)cccc3Cl)s2)cc(N2CCN(CCO)CC2)n1.O ? Compound metabolized

Consider the compound shown here: Nc1nc(N)nc(-c2cc(Cl)ccc2Cl)n1.O=C(O)/C=C\C(=O)O [IRSOGLADINE MALEATE] What is its recorded Bacterial Biotransformation? Compound NOT metabolized

Would you kindly share the measured Bacterial Biotransformation for CN(C)CCC=C1c2ccccc2COc2ccccc21 [DOXEPIN] ? Compound NOT metabolized

Please report the recorded Bacterial Biotransformation for CC1OC(OC2C(O)CC(OC3C(O)CC(OC4CCC5(C)C(CCC6C5CCC5(C)C(C7=CC(=O)OC7)CCC65O)C4)OC3C)OC2C)CC(O)C1O (stereo unspecified) . Compound NOT metabolized

====

Experiment: The drug is tested on the gut metagenome community of MV28 with ENA study accession number: PRJEB31790 and ENA sample accession number: SAMEA5537509 for biotransformation. The drug concentrations were measured over 9 timepoints collected between 0 and 24 hours of incubation by liquid-chromatography-coupled mass spectrometry (LC–MS)
Assay type: ADME
Parameters: dose 2 uM, timepoint 0, 1, 2, 4, 6, 8, 12, 18, 24 hours
Settings: 2 µM
property-name: Bacterial Biotransformation

- compound: "COc1ccc([C@@H]2Sc3ccccc3N(CCN(C)C)C(=O)[C@@H]2OC(C)=O)cc1 [DILTIAZEM]"
  reported-value: "Compound NOT metabolized"
- compound: "C[C@@H]1C[C@H]2[C@@H]3CCC4=CC(=O)C=C[C@]4(C)[C@@]3(F)[C@@H](O)C[C@]2(C)[C@@]1(O)C(=O)CO [DEXAMETHASONE]"
  reported-value: "Compound NOT metabolized"
- compound: "CC(=O)OCC(CCn1cnc2cnc(N)nc21)COC(C)=O [FAMCICLOVIR]"
  reported-value: "Compound metabolized"
- compound: "C#C[C@]1(OC(C)=O)CC[C@H]2[C@@H]3CCC4=CC(=O)CC[C@@H]4[C@H]3CC[C@@]21C [NORETHINDRONE ACETATE]"
  reported-value: "Compound metabolized"

====

Experiment: The drug is tested on Blautia luti strain: DSM14534 for biotransformation. The drug concentrations were measured before and after a 12-h incubation by liquid-chromatography-coupled mass spectrometry (LC–MS)
Type: ADME
Design: dose 2 uM, timepoint 0 vs 12 hours
Details: 2 µM
property-name: Bacterial Biotransformation

Please review the entries below; each comes with its answer.
- compound: "CCOC(=O)[C@H](CCc1ccccc1)N[C@@H](C)C(=O)N1CCC[C@H]1C(=O)O.O=C(O)/C=C\\C(=O)O [ENALAPRIL MALEATE]"
  Bacterial Biotransformation: "Compound NOT metabolized"
- compound: "O=C1NCC2(CCN(CCc3ccccc3)CC2)O1 [FENSPIRIDE]"
  Bacterial Biotransformation: "Compound NOT metabolized"
- compound: "CCCCC1=NC2(CCCC2)C(=O)N1Cc1ccc(-c2ccccc2-c2nnn[nH]2)cc1"
  Bacterial Biotransformation: "Compound NOT metabolized"
- compound: "C[C@]12CCC(=O)C=C1[C@@H]1C[C@@H]1[C@H]1[C@@H]3[C@@H]4C[C@@H]4[C@@]4(CCC(=O)O4)[C@@]3(C)CC[C@@H]12"
  Bacterial Biotransformation: "Compound NOT metabolized"
- compound: "O=C(O[C@H]1C[C@H]2CC[C@@H](C1)[N+]21CCCC1)C(O)(c1ccccc1)c1ccccc1.[Cl-] [TROSPIUM CHLORIDE]"
  Bacterial Biotransformation: "Compound NOT metabolized"

Look up Bacterial Biotransformation: O=C1CN2Cc3c(ccc(Cl)c3Cl)N=C2N1 [ANAGRELIDE] Compound NOT metabolized
